Biological target: Acyl-protein thioesterase 1 (Homo sapiens)
Experiment: LYPLA1 inhibitor selectivity over serine hydrolases, late-stage follow-up, selectivity assay for LYPLA1 inhibitor project, cell lysate, competitive ABPP, HEK293T proteome, set 2 (AID 652018);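 note: 0% = DMSO-only band intensity and 100% = blank gel background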
Settings: competitive ABPP FP-PEG-Rh gel, LYPLA1, inhibition, at 1 µM, stronger effect = higher value
VALUE TYPE: inhibition (%)
Give bare numbers, in %.

[[record]]
smiles_string = "COc1ccc(N2CCN(C(=O)n3cncn3)CC2)cc1"
reported_value = 75

[[record]]
smiles_string = "COc1ccc(N2CCN(C(=O)n3ccnn3)CC2)cc1"
reported_value = 50

[[record]]
smiles_string = "O=C(CN1CCN(C(=O)n2cc(-c3ccc(-c4ccccc4)cc3)nn2)CC1)Nc1cc(C(F)(F)F)ccc1Cl"
reported_value = 30

[[record]]
smiles_string = "O=C(CN1CCN(C(=O)n2nc(Br)nc2Br)CC1)Nc1cc(C(F)(F)F)ccc1Cl"
reported_value = 85

[[record]]
smiles_string = "O=C(CN1CCN(C(=O)n2ncc(-c3ccc(OC(F)(F)F)cc3)n2)CC1)Nc1cc(C(F)(F)F)ccc1Cl"
reported_value = 30


Below are 4 compounds. Give each one its inhibition.
1. COc1ccc(N2CCN(C(=O)n3nc(Br)c(Br)n3)CC2)cc1
2. COc1ccc(N2CCN(C(=O)n3ncc(-c4ccc(OC(F)(F)F)cc4)n3)CC2)cc1
3. O=C(CN1CCN(C(=O)n2ncc(-c3ccc(Br)cc3)n2)CC1)Nc1cc(C(F)(F)F)ccc1Cl
4. COc1ccc(N2CCN(C(=O)n3cc(-c4ccc(OC(F)(F)F)cc4)nn3)CC2)cc1

1. 95
2. 10
3. 70
4. 20

====

Molecular target: Acyl-protein thioesterase 1 (Homo sapiens)
Test: LYPLA1 inhibitor selectivity over serine hydrolases, late-stage follow-up, selectivity assay for LYPLA1 inhibitor project, cell lysate, competitive ABPP, HEK293T proteome, set 2 (AID 652018);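 note: 0% = DMSO-only band intensity and 100% = blank gel background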
Conditions: competitive ABPP FP-PEG-Rh gel, LYPLA1, inhibition, at 0.3 µM, stronger effect = higher value
VALUE TYPE: inhibition (%)
Numbers only, in %.

Field: example entries. Status: answers known.
[[record]]
smiles_string = "O=C(CN1CCN(C(=O)n2cc(-c3ccc(-c4ccccc4)cc3)nn2)CC1)Nc1cc(C(F)(F)F)ccc1Cl"
value_type = "inhibition"
reported_value = 30

[[record]]
smiles_string = "O=C(CN1CCN(C(=O)n2nc(Br)c(Br)n2)CC1)Nc1cc(C(F)(F)F)ccc1Cl"
value_type = "inhibition"
reported_value = 90

[[record]]
smiles_string = "O=C(CN1CCN(C(=O)n2cncn2)CC1)Nc1cc(C(F)(F)F)ccc1Cl"
value_type = "inhibition"
reported_value = 30


Below are 3 compounds. Give each one its inhibition.
1. COc1ccc(N2CCN(C(=O)n3cc(C(O)(c4ccccc4)c4ccccc4)nn3)CC2)cc1
2. O=C(CN1CCN(C(=O)n2cc(-c3ccc(OC(F)(F)F)cc3)nn2)CC1)Nc1cc(C(F)(F)F)ccc1Cl
3. O=C(CN1CCN(C(=O)n2cc(C(O)(c3ccccc3)c3ccccc3)nn2)CC1)Nc1cc(C(F)(F)F)ccc1Cl

[85, 30, 80]

Below are 4 compounds. Give each one its inhibition.
1. COc1ccc(N2CCN(C(=O)n3nccn3)CC2)cc1
2. O=C(N1CCN(c2ccc(Cl)c(Cl)c2)CC1)n1ncc(C(O)(c2ccccc2)c2ccccc2)n1
3. O=C(CN1CCN(C(=O)n2ncc(-c3ccc(Br)cc3)n2)CC1)Nc1cc(C(F)(F)F)ccc1Cl
4. COc1ccc(N2CCN(C(=O)n3nc(Br)c(Br)n3)CC2)cc1

1: 20; 2: 30; 3: 70; 4: 85

Recorded result, "COc1ccc(N2CCN(C(=O)n3cncn3)CC2)cc1" , inhibition: 20

====

Target: Acyl-protein thioesterase 1 (Homo sapiens) (UniProt O75608)
Sequence (O75608 whole entry, looked up): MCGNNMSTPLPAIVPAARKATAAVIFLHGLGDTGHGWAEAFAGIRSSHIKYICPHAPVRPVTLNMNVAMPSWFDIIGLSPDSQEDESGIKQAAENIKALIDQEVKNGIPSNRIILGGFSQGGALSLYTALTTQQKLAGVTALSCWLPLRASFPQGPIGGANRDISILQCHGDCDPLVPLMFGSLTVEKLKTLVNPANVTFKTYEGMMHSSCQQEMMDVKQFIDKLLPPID
Test: LYPLA1 inhibitor selectivity over serine hydrolases, late-stage follow-up, selectivity assay for LYPLA1 inhibitor project, cell lysate, competitive ABPP, HEK293T proteome, set 2 (AID 652018);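 note: 0% = DMSO-only band intensity and 100% = blank gel background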
Conditions: competitive ABPP FP-PEG-Rh gel, LYPLA1, at 10 µM
Calls of active or inactive are those of the source.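 The calls were made as follows: active = at least 50% inhibition of LYPLA1 or LYPLA2 at 300 nM, with no off-target enzyme hit at any dose; inactive = under 50% inhibition on both enzymes, or any off-target hit.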
Assign a class; possible classes are active, inactive

See these solved cases before continuing.
[[record]]
smiles_string = "O=C(CN1CCN(C(=O)n2ncc(-c3ccc(-c4ccccc4)cc3)n2)CC1)Nc1cc(C(F)(F)F)ccc1Cl"
label_value = "inactive"

[[record]]
smiles_string = "COc1ccc(N2CCN(C(=O)n3nc(Br)c(Br)n3)CC2)cc1"
label_value = "active"

[[record]]
smiles_string = "O=C(CN1CCN(C(=O)n2ncc(C(O)(c3ccccc3)c3ccccc3)n2)CC1)Nc1cc(C(F)(F)F)ccc1Cl"
label_value = "active"

[[record]]
smiles_string = "COc1ccc(N2CCN(C(=O)n3ncc(C(O)(c4ccccc4)c4ccccc4)n3)CC2)cc1"
label_value = "active"

[[record]]
smiles_string = "COc1ccc(N2CCN(C(=O)n3nc(Br)nc3Br)CC2)cc1"
label_value = "inactive"

[[record]]
smiles_string = "O=C(CN1CCN(C(=O)n2ncc(-c3ccc(Br)cc3)n2)CC1)Nc1cc(C(F)(F)F)ccc1Cl"
label_value = "active"


Dear colleague, could you share the recorded outcome for "O=C(CN1CCN(C(=O)n2nc(Br)c(Br)n2)CC1)Nc1cc(C(F)(F)F)ccc1Cl" when you have a moment?
active

====

Biological target: Acyl-protein thioesterase 2 (Homo sapiens)
Experiment: LYPLA1 inhibitor selectivity over serine hydrolases, late-stage follow-up, selectivity assay for LYPLA1 inhibitor project, cell lysate, competitive ABPP, HEK293T proteome, set 2 (AID 652018);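 note: 0% = DMSO-only band intensity and 100% = blank gel background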
Conditions: competitive ABPP FP-PEG-Rh gel, LYPLA2, inhibition, at 0.3 µM, stronger effect = higher value
Would you mind telling me the reported inhibition of each entry?
Answers are plain numbers, in %.

Field: example entries. Status: answers known.
[[record]]
smiles_string = "O=C(N1CCN(c2ccc(Br)cc2)CC1)n1ncc(C(O)(c2ccccc2)c2ccccc2)n1"
units_of_measure = "%"
reported_value = 20

[[record]]
smiles_string = "COc1ccc(N2CCN(C(=O)n3cc(C(O)(c4ccccc4)c4ccccc4)nn3)CC2)cc1"
units_of_measure = "%"
reported_value = 20


Below are 7 compounds. Give each one its inhibition.
1. COc1ccc(N2CCN(C(=O)n3nccn3)CC2)cc1
2. O=C(CN1CCN(C(=O)n2cc(-c3ccc(OC(F)(F)F)cc3)nn2)CC1)Nc1cc(C(F)(F)F)ccc1Cl
3. COc1ccc(N2CCN(C(=O)n3cc(-c4ccc(OC(F)(F)F)cc4)nn3)CC2)cc1
4. O=C(CN1CCN(C(=O)n2ncc(-c3ccc(-c4ccccc4)cc3)n2)CC1)Nc1cc(C(F)(F)F)ccc1Cl
5. COc1ccc(N2CCN(C(=O)n3nc(Br)nc3Br)CC2)cc1
6. O=C(CN1CCN(C(=O)n2ncc(-c3ccc(Br)cc3)n2)CC1)Nc1cc(C(F)(F)F)ccc1Cl
7. O=C(CN1CCN(C(=O)n2cncn2)CC1)Nc1cc(C(F)(F)F)ccc1Cl

10
30
10
30
10
50
30

Below are 4 compounds. Give each one its inhibition.
1. O=C(CN1CCN(C(=O)n2nc(Br)nc2Br)CC1)Nc1cc(C(F)(F)F)ccc1Cl
2. O=C(CN1CCN(C(=O)n2cc(C(O)(c3ccccc3)c3ccccc3)nn2)CC1)Nc1cc(C(F)(F)F)ccc1Cl
3. COc1ccc(N2CCN(C(=O)n3cncn3)CC2)cc1
4. O=C(CN1CCN(C(=O)n2nc(Br)c(Br)n2)CC1)Nc1cc(C(F)(F)F)ccc1Cl

1: 40; 2: 60; 3: 10; 4: 85
